Biological target: biotinylated CD59 (Homo sapiens, UniProt P13987)
Construct: Recombinant soluble human CD59 with an additional C-terminal cysteine residue
Sequence (P13987 26-102 limits assumed): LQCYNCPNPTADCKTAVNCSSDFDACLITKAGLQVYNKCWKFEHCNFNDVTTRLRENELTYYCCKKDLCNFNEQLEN
Test: mRNA-display cyclic peptide screen against CD59-biotin, NGS abundance after 6th selection round
Details: counts normalised by total counts of sample Seq II; percentage of the pool, sheet R6
Assign labels as follows, please: Satisfied for Percentage Seq II below 0.02%; Not satisfied for Percentage Seq II equal to or exceeding 0.02%.

Answered cases to consult:
-- ask I wonder whether CYGGRTLIYAWS has Percentage Seq II below 0.02%. Can you tell?
-- reply Satisfied

-- ask I wonder whether HCWVRGSRSYT has Percentage Seq II below 0.02%. Can you tell?
-- reply Not satisfied

-- ask I wonder whether CYGGRTFIYAWS has Percentage Seq II below 0.02%. Can you tell?
-- reply Not satisfied

-- ask I wonder whether CFAARARNNQTV has Percentage Seq II below 0.02%. Can you tell?
-- reply Not satisfied

-- ask I wonder whether LRGSYDYQLYFG has Percentage Seq II below 0.02%. Can you tell?
-- reply Not satisfied

***
-- ask I wonder whether FVRGNSTSVLF has Percentage Seq II below 0.02%. Can you tell?
-- reply Satisfied

-- ask I wonder whether HVFGDRSFTRG has Percentage Seq II below 0.02%. Can you tell?
-- reply Not satisfied

-- ask I wonder whether LVTGNRDHTRG has Percentage Seq II below 0.02%. Can you tell?
-- reply Not satisfied

-- ask I wonder whether LLGSSSYVKFWY has Percentage Seq II below 0.02%. Can you tell?
-- reply Not satisfied

-- ask I wonder whether FIFGNRNWTFG has Percentage Seq II below 0.02%. Can you tell?
-- reply Not satisfied

* * *

Target: biotinylated CD59 (Homo sapiens)
Construct: Recombinant soluble human CD59 with an additional C-terminal cysteine residue
Sequence (P13987 26-102 limits assumed): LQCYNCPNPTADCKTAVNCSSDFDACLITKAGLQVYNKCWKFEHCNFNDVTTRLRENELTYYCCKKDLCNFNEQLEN
Experiment: mRNA-display cyclic peptide screen against CD59-biotin, NGS abundance after 6th selection round
Conditions: NGS sample Seq II, sheet R6 (6th selection round)
Listed sequences paired with reported Counts (raw counts for peptide sequence), Seq II

Take a look at these entries with their results.
-- ask Entry CFSHRNPTDSI has what Counts (raw counts for peptide sequence), Seq II?
-- reply 6

-- ask Entry SAWGDRQIQYY has what Counts (raw counts for peptide sequence), Seq II?
-- reply 6

-- ask Entry AISGGRDYTRG has what Counts (raw counts for peptide sequence), Seq II?
-- reply 6

-- ask Entry YSSGSRHWTRS has what Counts (raw counts for peptide sequence), Seq II?
-- reply 7

***
-- ask Entry GRVRTCPVIV has what Counts (raw counts for peptide sequence), Seq II?
-- reply 5

-- ask Entry FVTGNSDHTRG has what Counts (raw counts for peptide sequence), Seq II?
-- reply 4

-- ask Entry CCGGRTFIYAWS has what Counts (raw counts for peptide sequence), Seq II?
-- reply 4

-- ask Entry YVRGDLYSVLG has what Counts (raw counts for peptide sequence), Seq II?
-- reply 5

-- ask Entry FIRGNSTSVPF has what Counts (raw counts for peptide sequence), Seq II?
-- reply 4

-- ask Entry LWGTHSYTYYRP has what Counts (raw counts for peptide sequence), Seq II?
-- reply 4

-- ask Entry SWTWGNRSSVLG has what Counts (raw counts for peptide sequence), Seq II?
-- reply 7

Reference for the values: paper PMC12207370
